- System: SR leukemia
- experiment_summary: NCI-60 one-dose screen, 48 h (100 = growth as untreated, 0 = no growth, -100 = all killed)
- experimental_setup: 10 µM unless noted
Compounds without any hit were thinned out: in the full panel of roughly 83,000, 20% have a hit.

| compound | units_label | growth |
| --- | --- | --- |
| CC(=O)Nc1cc(C)ccc1C | % | 98.8 |
| Oc1ccc(N=Nc2ccccn2)c(O)c1 | % | 10.6 |
| COc1c(O)cc2oc3cc(O)c(CC=C(C)C)c(O)c3c(=O)c2c1CC=C(C)C | % | 7.13 |
| OCC(O)C(O)C(O)C(/C=N/Nc1ccccc1)=N/Nc1ccccc1 (configuration not stated) | % | 58.8 |
| CCCCCCCCCCSC(=N)N | % | -25 |
| Clc1cc(Cl)c(Cl)nn1 | % | 72 |
| Cc1cc(O)c(C(C)C)cc1Cl | % | 103 |

---

- Tested on: SN12C renal
- experiment_summary: NCI-60 one-dose screen, 48 h (100 = growth as untreated, 0 = no growth, -100 = all killed)
- experimental_setup: 10 µM
The panel holds about 83,000 compounds, 20% with a hit somewhere; the sample as a whole holds those more often.
Lab note: cut-off is 80%. Strictly less in growth is 1. Exactly 80% or more is 0.

| compound | category_label |
| --- | --- |
| COc1cccc2c1C(=O)c1c(O)c3c(c(O)c1C2=O)C[C@@](O)(C(C)=O)C[C@@H]3OC1CC(N)C(O)C(C)O1 (some centres undefined) | 1 |
| CCN(CC)c1ccc(NC(C(=O)c2ccccc2)c2ccccc2)cc1 (centres undefined) | 1 |
| O=C1NC(=O)c2cc([N+](=O)[O-])ccc21 | 0 |
| N=S(c1ccccc1[N+](=O)[O-])c1ccccc1[N+](=O)[O-] | 0 |
| CC[N+](CC)=c1ccc2nc3c(cc(N)c4ccccc43)oc-2c1 | 1 |
| CC(=O)Nc1cc(C)ccc1C | 0 |
| O=c1ccn(C2CC(O)C(COC(c3ccccc3)(c3ccccc3)c3ccccc3)O2)c(=O)[nH]1 (centres undefined) | 0 |
| CCO/C=C1\SC(=S)N(c2cccc(O)c2)C1=O | 0 |
| CO[C@H](C(=O)[C@@H](O)[C@@H](C)O)[C@@H]1Cc2cc3cc(OC4CC(OC5CC(O)C(O)C(C)O5)C(O)C(C)O4)c(C)c(O)c3c(O)c2C(=O)[C@H]1OC1CC(OC2CC(OC3CC(C)(O)C(O)C(C)O3)C(O)C(C)O2)C(O)C(C)O1 (some centres undefined) | 1 |

---

- Tested on: MDA-MB-435 melanoma
- experiment_summary: NCI-60 one-dose screen, 48 h
- experimental_setup: 10 µM
About 83,000 compounds went through this panel and 20% of them were active in at least one assay; those are over-represented in the sample as a whole. Active and inactive are the calls of the source. How the source made its calls: active means growth percent below 10; inactive means the rest.
Classes used: active, inactive

| molecule | category_label |
| --- | --- |
| CC(=O)OCC(OC(C)=O)C(OC(C)=O)C(OC(C)=O)C(OC(C)=O)C(/C=N/Nc1ccccc1)=N/Nc1ccccc1 (stereo not given) | inactive |
| COC(=O)C1C(O)C(C)C(O)C(C)C=C(C)C2=C3C(=C(C)C(=O)c4c(O)c(c(C)c(OC(C)=O)c43)NC(=O)C(C)=C/C=C\C(C)C(O)C(C)C1O)OCO2 (stereo not given) | inactive |
| NC(=O)SCC(=O)NNc1ccccc1 | inactive |
| N=S(c1ccccc1[N+](=O)[O-])c1ccccc1[N+](=O)[O-] | inactive |
| NC1=C(Cl)C(=O)c2ccccc2C1=O | active |
| CN1CCN(CCCN2c3ccccc3Sc3ccc(C(F)(F)F)cc32)CC1 | inactive |
| Cc1nc(N=C(N)N)nc2ccc3ccccc3c12 | active |
| CC1=CC(C)=Nc2ccc(Cl)cc2N1 | inactive |
| O=[N+]([O-])C1=C(c2ccccc2)SC=C(c2ccccc2)S1 | inactive |
| Clc1ccc(/C=C/c2ccccn2)c(Cl)c1 | inactive |

The reported measurements were obtained from PubChem BioAssay (NCI).
